Exercise: state measured ddG of mutation (higher = less stable) for each of the variants provided.
B1: Ribonuclease, P00648 (parent)
chain: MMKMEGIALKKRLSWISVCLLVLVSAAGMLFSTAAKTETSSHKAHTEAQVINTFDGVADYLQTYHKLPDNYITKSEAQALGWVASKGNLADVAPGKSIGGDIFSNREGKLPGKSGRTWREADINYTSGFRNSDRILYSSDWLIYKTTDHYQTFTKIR

# Variants of: B1
# condition.context: Bacillus amyloliquefaciens; pH 8.9; 25 °C; Urea; NMR; Tris 30 mM; NaCl 1 M; structure 1BNI; whole UniProt chain shown
Kindly format the answer as number then unit.

Look at this variant and give its reported ddG of mutation (higher = less stable). `G81H` 3.15 kcal/mol

Look at this variant and give its reported ddG of mutation (higher = less stable). `D101N` 2.32 kcal/mol

Look at this variant and give its reported ddG of mutation (higher = less stable). T73H D101N 4.27 kcal/mol

Look at this variant and give its reported ddG of mutation (higher = less stable). `T53H` 1.56 kcal/mol

Look at this variant and give its reported ddG of mutation (higher = less stable). `W141L` 0.64 kcal/mol

Look at this variant and give its reported ddG of mutation (higher = less stable). H65G W141L -0.33 kcal/mol
